Biological target: Gsx1HD (Mus musculus, UniProt P31315 146-207)
Sequence (P31315 146-207): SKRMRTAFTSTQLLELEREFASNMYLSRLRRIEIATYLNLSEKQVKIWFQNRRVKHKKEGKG
Assay: ITC; K 5.5 ± 0.8 x10^7 M-1; N 0.96; ITC: 50 mM sodium phosphate pH 6.5, 150 mM NaCl, 20 C; EMSA: 35 nM probe, 15 min room temperature, buffer as in cited ref 31
Details: protein: recombinant; 5' overhang 1 nt on each strand
measurement name: Kd (nM)
// note: answer is a bare numeric in nM

Entry TAATTA consensus 15-mer (dsDNA) DNA 1: TGAGCTAATTAAAGC DNA 2: AGCTTTAATTAGCTC — recorded Kd = 18
